- ASSAY SYSTEM: Fuc(a1-2)Gal(b1-4)GlcNAc(b1-2)Man(a1-3)[Fuc(a1-2)Gal(b1-4)GlcNAc(b1-2)Man(a1-6)]Man(b1-4)GlcNAc(b1-4)GlcNAc
- RUN DESCRIPTION: glycan array binding signal (z-score within array); higher = stronger binding
- MEASUREMENT CONDITIONS: glycan notation: IUPAC condensed, linker removed
This excerpt belongs to a sample that is enriched for the strongest signals.
EXPERIMENTAL READOUT: glycan array binding signal (z-score)

BINDER	NUMERIC VALUE
PGP3 (Chlamydia trachomatis), P0CE18 (protein) MGNSGFYLYNTQNCVFADNIKVGQMTEPLKDQQIILGTTSTPVAAKMTASDGISLTVSNNPSTNASITIGLDAEKAYQLILEKLGDQILGGIADTIVDSTVQDILDKITTDPSLGLLKAFNNFPITNKIQCNGLFTPRNIETLLGGTEIGKFTVTPKSSGSMFLVSADIIASRMEGGVVLALVREGDSKPYAISYGYSSGVPNLCSLRTRIINTGLTPTTYSLRVGGLESGVVWVNALSNGNDILGITNTSNVSFLEVIPQTNA	-0.053
LlpA (Burkholderia cenocepacia) (protein) MGSSHHHHHHSSGLVPRGSHKILGSNETLSAGNVVYSDNGQYHLAMQTDGNLVVYGPTGAVWQSQTSGSGGNRAVMQGDGNLVIYRADNTAAWSSKTAHPGAFLAVQDDGNVVIYWPRPAWASNTSDPATQQSAESKYLASGSTMSAGQTVTVAQYMLVFQADGNLVLYKNGGNPIWSTGTQGKGATYAVMQSDGNFVIYAGSTALWSTKTNGANGAQLVLQSDGNLVIYAPTAAWSTKFGLVTAPTSTSTSNNGPGSGICVGVCPPHPLNGNPFSPVGVGTTGLGFPTPGYPGAAF	-0.314
Clone730PsrP (Streptococcus pneumoniae) (protein) MDHHHHHHHHHHASENLYFQGAMVVGSQTAAATEATAKKVEEDRKKPASDYVASVTNVNLQSYAKRRKRSVDSIEQLLASIKNAAVFSGNTIVNGAPAINASLNIAKSETKVYTGEGVDSVYRVPIYYKLKVTNDGSKLTFTYTVTYVNPKTNDLGNISSMRPGYSIYNSGTSTQTMLTLGSDLGKPSGVKNYITDKNGRQVLSYNTSTMTTQGSGYTWGNGAQMNGFFAKKGYGLTSSWTVPITGTDTSFTFTPYAARTDRIGINYFNGGGKVVESSTT	-0.472
RbmA (Vibrio cholerae), A0A2H4NFB8 (protein) MSNFKGSIMNKRHYYLASCLALLFSTASYAEVDCELQPVIEANLSLNQNQLASNGGYISSQLGIRNESCETVKFKYWLSIKGPEGIYFPAKAVVGVDTAQQESDALTDGRMLNVTRGFWVPEYMADGKYTVSLQVVAENGEVFKANQEFVKGGDLNSLPELNGLTIDIKNQFGINSVESTGGFVPFTIDLNNGREGEAKVEFWMTAVGPDGLIIPVHSREKWMIIAGNTFSKVRGINFDKSYPAGEYTINAQVVDIVSGERVEQLMTVVKK	3.71
